# assay.system: RSV protein F (recombinant or purified F protein) (human respiratory syncytial virus, …)
# method.notes: SPR Biacore 3000, Fab over amine-coupled recombinant protein F
measured.attribute: koff

binder	koff
Fab fragment of antibody 818 (Fab, V domains shown) VH: QVTLRESGPAVVKPTETLTLTCAFSGFSLNAGRVGVSWIRQPPGQAPEWLARIDWDDDKAFRTSLKTRLSISKDSSKNQVVLTLSNMDPADTATYYCARTQVFASGGYYLYYLDHWGQGTLVTVSS VL: DIQMTQSPSSLSASVGDRVTITCRASQTIASYVNWYQQKPGRAPSLLIYAASNLQSGVPPRFSGSGSGTDFTLTISGLQPDDFATYYCQQSYSYRALTFGGGTKVEIKR	2.2e-05 s⁻¹

Here's the next entry for you.
Input: State the recorded koff for this entry: Fab fragment of antibody 831 (Fab, V domains shown, also called Fab clone 831) VH: QVQLVQSGAEVKKPGASVKVSCKASANIFTYAMHWVRQAPGQRLEWMGWINVGNGQTKYSQRFQGRVTITRDTSATTAYMELSTLRSEDTAVYYCARRASQYGEVYGNYFDYWGQGTLVTVSS VL: DIQMTQSPSTLSASVGDRLTITCRASQNIYNWLAWYQQKPGKAPKLLIYDASTLESGVPSRFSGSGSGTEFTLTISSLQPDDFATYYCQQYNSLSPTFGQGTKVEIKR
Output: 0.00042 s⁻¹
